- target-of-assay: Peregrin (Homo sapiens, UniProt P55201)
- Sequence (P55201 whole entry): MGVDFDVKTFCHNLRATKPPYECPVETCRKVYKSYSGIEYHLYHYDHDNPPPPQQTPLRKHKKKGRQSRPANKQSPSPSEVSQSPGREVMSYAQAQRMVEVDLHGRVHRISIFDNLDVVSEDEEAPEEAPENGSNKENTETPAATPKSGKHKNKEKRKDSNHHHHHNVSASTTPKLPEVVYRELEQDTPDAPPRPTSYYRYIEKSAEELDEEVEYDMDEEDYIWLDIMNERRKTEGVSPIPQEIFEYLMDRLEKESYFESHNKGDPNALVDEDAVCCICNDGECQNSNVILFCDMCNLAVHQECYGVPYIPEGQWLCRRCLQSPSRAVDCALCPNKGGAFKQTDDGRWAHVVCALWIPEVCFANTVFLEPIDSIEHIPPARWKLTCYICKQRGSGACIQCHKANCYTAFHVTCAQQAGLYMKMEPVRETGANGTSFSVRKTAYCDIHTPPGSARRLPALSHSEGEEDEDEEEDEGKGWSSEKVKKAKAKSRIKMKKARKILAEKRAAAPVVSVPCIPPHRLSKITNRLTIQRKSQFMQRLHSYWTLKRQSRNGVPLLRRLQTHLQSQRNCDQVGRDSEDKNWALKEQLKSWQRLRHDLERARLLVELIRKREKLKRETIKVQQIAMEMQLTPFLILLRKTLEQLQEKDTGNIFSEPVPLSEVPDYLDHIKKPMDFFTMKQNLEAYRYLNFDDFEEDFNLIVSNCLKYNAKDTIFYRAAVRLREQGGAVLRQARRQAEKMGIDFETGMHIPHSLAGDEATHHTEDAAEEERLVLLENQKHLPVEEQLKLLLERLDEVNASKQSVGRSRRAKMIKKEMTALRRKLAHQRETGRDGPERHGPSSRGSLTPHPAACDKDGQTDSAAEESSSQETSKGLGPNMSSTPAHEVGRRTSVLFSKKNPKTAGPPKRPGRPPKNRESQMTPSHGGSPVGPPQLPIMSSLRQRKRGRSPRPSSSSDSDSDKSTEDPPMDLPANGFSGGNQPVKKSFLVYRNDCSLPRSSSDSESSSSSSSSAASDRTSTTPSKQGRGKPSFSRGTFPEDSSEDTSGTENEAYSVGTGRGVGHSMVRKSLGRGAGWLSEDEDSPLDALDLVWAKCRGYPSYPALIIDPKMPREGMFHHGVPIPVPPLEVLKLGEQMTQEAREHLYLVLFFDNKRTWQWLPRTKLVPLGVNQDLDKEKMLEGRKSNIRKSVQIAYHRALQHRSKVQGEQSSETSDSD
# merged literature set: pIC50 with Peregrin (Homo sapiens, UniProt P55201)
The read-out pIC50 is expressed as -log10 of concentration in moles per litre.

Data request: Any idea what pIC50 came out for Cc1ccc(S(=O)(=O)Nc2cc3c(cc2Oc2ccccc2)n(C)c(=O)n3C)cc1 on Peregrin (Homo sapiens, UniProt P55201)?
Data returned: 6.29

Data request: Another molecule to check: COc1ccccc1S(=O)(=O)Nc1ccc2c3c(cc(-n4cnc(C)c4)nc13)C(=O)N2C
Data returned: 6.25

Data request: Another molecule to check: COc1ccc(S(=O)(=O)Nc2cc3c(cc2Oc2ccccc2)n(C)c(=O)n3C)cc1OC
Data returned: 6.54

Data request: Another molecule to check: COc1ccc(Oc2cc3c(cc2NS(=O)(=O)c2ccccc2C)n(C)c(=O)n3C)cc1
Data returned: 6.17

Data request: Another molecule to check: CC(=O)c1cc(-c2cc(C(=O)NC3CC3)ccc2C)c2ncccn12
Data returned: 5.65

Data request: Another molecule to check: Cn1c(=O)n(C)c2cc(Oc3ccccc3)c(NS(=O)(=O)c3ccc4c(c3)CCCC4)cc21
Data returned: 5.57

Data request: Another molecule to check: Cc1cc(Cl)ccc1S(=O)(=O)Nc1cc2c(cc1Oc1ccccc1)n(C)c(=O)n2C
Data returned: 5.93

Data request: Another molecule to check: Cc1ccc(S(=O)(=O)Nc2cc3c(cc2Oc2ccccc2)n(C)c(=O)n3C)cc1F
Data returned: 5.98

Data request: Another molecule to check: Cn1c(=O)n(C)c2cc(NS(=O)(=O)c3ccc4c(c3)CCC(C)(C)O4)ccc21
Data returned: 6.51

Data request: Another molecule to check: COC1(C)Oc2cc(S(=O)(=O)Nc3ccc4c(c3)n(C)c(=O)n4C)ccc2O[C@]1(C)OC (some centres undefined)
Data returned: 5.85

Data request: Another molecule to check: CCCS(=O)(=O)c1nc(NC2CC2)cc(-c2ccc3c(ccn3C3CC(C)(C)NC(C)(C)C3)c2)n1
Data returned: 5.36

Data request: Another molecule to check: Cn1c(=O)n(C)c2cc(NS(=O)(=O)c3ccc4c(c3)CCCC4)ccc21
Data returned: 6.48

Data request: Another molecule to check: CC(C)c1ccc(S(=O)(=O)Nc2ccc3c(c2)n(C)c(=O)n3C)cc1
Data returned: 6.38
